All values here come from patent US8987287B2.

target: κ opioid receptor (Homo sapiens (Human)); test: κ-opioid receptor radioligand ([3H]-U69,593) dose-displacement binding assay; conditions: binding affinity, read-out: Opioid Receptor Ki (nM) κ
Threshold-based label: Ki under 10 nM gives Yes, Ki not under 10 nM gives No.

GIVEN_SMILES	CLASS_LABEL
COc1ccc2c(c1)[C@]13CCN(CC4CC4)[C@H](C2)[C@]1(O)CC[C@@]1(C3)NC(=O)NC1=O	No
COc1ccc2c(c1)[C@]13CCN(CC4CC4)[C@H](C2)[C@]1(O)CC[C@@]1(CNC(=O)N1)C3	No
CN1CC[C@]23C[C@]4(CC[C@@]2(O)[C@H]1Cc1ccc(O)cc13)NC(=O)NC4=O	No
O=C1NC(=O)[C@@]2(CC[C@@]3(O)[C@H]4Cc5ccc(O)cc5[C@@]3(CCN4CC3CC3)C2)N1	Yes
COc1ccc2c(c1)[C@]13CCN(CC4CC4)[C@H](C2)[C@@H]1CC[C@@]1(C3)NC(=O)NC1=O	No
O=C1NC(=O)[C@@]2(CC[C@H]3[C@H]4Cc5ccc(O)cc5[C@@]3(CCN4CC3CC3)C2)N1	Yes
O=C1NC[C@@]2(CC[C@@]3(O)[C@H]4Cc5ccc(O)cc5[C@@]3(CCN4CC3CC3)C2)N1	Yes
CCN1C(=O)NC(=O)[C@@]12CC[C@@]1(O)[C@H]3Cc4ccc(O)cc4[C@@]1(CCN3CC1CC1)C2	Yes
CN1C(=O)NC(=O)[C@@]12CC[C@@]1(O)[C@H]3Cc4ccc(O)cc4[C@@]1(CCN3CC1CC1)C2	Yes

###

target: UniProt:P41143; assay: δ-opioid receptor radioligand ([3H]-Naltrindole) dose-displacement binding assay; conditions: binding affinity
Sequence (P41143 whole entry, looked up): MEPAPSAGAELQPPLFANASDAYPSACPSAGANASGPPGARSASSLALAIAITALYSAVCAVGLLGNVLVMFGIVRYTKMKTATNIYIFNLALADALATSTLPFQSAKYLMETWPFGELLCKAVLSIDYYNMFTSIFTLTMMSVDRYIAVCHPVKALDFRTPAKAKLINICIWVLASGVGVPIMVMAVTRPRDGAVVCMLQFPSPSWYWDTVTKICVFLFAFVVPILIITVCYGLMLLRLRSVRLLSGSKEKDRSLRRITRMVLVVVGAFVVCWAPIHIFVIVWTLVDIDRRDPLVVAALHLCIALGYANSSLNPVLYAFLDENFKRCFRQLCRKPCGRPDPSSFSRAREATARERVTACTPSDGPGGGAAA

GIVEN_SMILES	Ki / nM
O=C1NC(=O)[C@@]2(CC[C@@]3(O)[C@H]4Cc5ccc(O)cc5[C@@]3(CCN4CC3CC3)C2)N1	177
O=C1NC[C@@]2(CC[C@@]3(O)[C@H]4Cc5ccc(O)cc5[C@@]3(CCN4CC3CC3)C2)N1	272

###

Recorded pEC50 by entry
target: UniProt P35372; assay: μ-opioid receptor [35S]GTPγS functional assay, HEK-293 or CHO cells; type: biochemical
pEC50: −log10 of the molar value.

GIVEN_SMILES	EXPERIMENTAL_SYSTEM	BOUND_OPERATOR	pEC50
O=C1NC(=O)[C@@]2(CC[C@H]3[C@H]4Cc5ccc(O)cc5[C@@]3(CCN4CC3CC3)C2)N1	UniProt P35372	=	8.42
O=C1NC(=O)[C@@]2(CC[C@@]3(O)[C@H]4Cc5ccc(O)cc5[C@@]3(CCN4CC3CC3)C2)N1	UniProt P35372	<	4.70
O=C1NC[C@@]2(CC[C@@]3(O)[C@H]4Cc5ccc(O)cc5[C@@]3(CCN4CC3CC3)C2)N1	UniProt P35372	<	4.70
COc1ccc2c(c1)[C@]13CCN(CC4CC4)[C@H](C2)[C@]1(O)CC[C@@]1(C3)NC(=O)NC1=O	UniProt P35372	=	5.71
CN1C(=O)NC(=O)[C@@]12CC[C@@]1(O)[C@H]3Cc4ccc(O)cc4[C@@]1(CCN3CC1CC1)C2	UniProt P35372	<	4.70
CCN1C(=O)NC(=O)[C@@]12CC[C@@]1(O)[C@H]3Cc4ccc(O)cc4[C@@]1(CCN3CC1CC1)C2	UniProt P35372	<	4.70
COc1ccc2c(c1)[C@]13CCN(CC4CC4)[C@H](C2)[C@@H]1CC[C@@]1(C3)NC(=O)NC1=O	UniProt P35372	=	5.84
COc1ccc2c(c1)[C@]13CCN(CC4CC4)[C@H](C2)[C@]1(O)CC[C@@]1(CNC(=O)N1)C3	UniProt P35372	=	6.09
